# System: RPMI-8226 leukemia
# method-notes: NCI tumour cell line growth inhibition, 48 h; in the data active = GI50 below about 0.43 µM; inactive = the rest
Pick one and only one: true (1) = active, false (0) = inactive

Any idea what this test logged for `c1cc(-c2nnc(SSc3ncnc4nc[nH]c34)o2)ccn1` ?
false (0)

Any idea what this test logged for `O=c1c2cc(-c3ccccc3)sc2ncn1Cc1ccc(Cl)c(Cl)c1` ?
false (0)

Any idea what this test logged for `Oc1c(Cl)cc(Cl)c2ccc(Cn3cc(-c4cc(C(F)(F)F)cc(C(F)(F)F)c4)nn3)nc12` ?
false (0)

Any idea what this test logged for `CC[C@@]1(OC(=O)CN)C(=O)OCc2c1cc1n(c2=O)Cc2c-1nc1cc3c(cc1c2CCl)OCO3` ?
true (1)

Any idea what this test logged for `COC(=O)C12CC(NC(=O)c3csc([C@@H](C[C@H](C(C)C)N(C)C(=O)[C@@H](NC(=O)[C@H]4CCCCN4C)C4CC4)OC(C)=O)n3)(C1)C2` ?
true (1)

Provenance of the data: PubChem BioAssay (NCI)
